Target: human PD-L1 on 293T-h-PDL1 cells (human, UniProt Q9NZQ7 19-238)
Sequence (Q9NZQ7 19-238): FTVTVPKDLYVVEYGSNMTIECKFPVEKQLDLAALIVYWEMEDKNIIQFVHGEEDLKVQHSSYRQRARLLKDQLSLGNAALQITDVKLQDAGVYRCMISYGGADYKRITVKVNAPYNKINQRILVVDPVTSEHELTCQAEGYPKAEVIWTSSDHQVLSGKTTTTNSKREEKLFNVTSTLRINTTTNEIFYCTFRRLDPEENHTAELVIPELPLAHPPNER
Test: FACS, purified antibody on 293T-h-PDL1 cells
readout-name: EC50 (µg/mL)
// units = µg/mL; emit number, no label

humanized antibody 14A7(hz) (antibody, V domains shown, also called 14A7-4(hz)) VH: QVQLVQSGAEVKKPGASVKVSCKASEYTFTNNWIAWVRQAPGQGLEWVGDIHPGGGFTNYNEKFKVRATLTADTSTSTAYMELSSLRSEDTAVYYCAGSKTRDYDAWFAYWGQGTTVTVSS VL: DIQMTQSPSTLSASVGDRVTITCKSSQSLLYTGNQKNYLAWYQQKPGKAPKLLIYWASTRESGVPSRFSGSGSGTEFTLTISSLQPDDFATYYCQQYYTYRTFGQGTKVEIKR: 0.77
chimeric antibody 13C9-1(chi) (antibody, V domains shown, Chimeric antibody of murine 13C9) VH: QVQLKQSGAGLVKPGASVKLSCKASGYIFTEYIIHWVKQRSGQGLEWIGWFYPGSDNIKYNEKFKDKATLTADKSSSTVYMELSRLTSEDSAVYFCARHETGYFFDYWGQGTTLTVSS VL: DIVITQSPAIMSASPGEKVTMTCSASSSVSKMNWYQQKSGTSPKRWIYDTSKLASGVPSRFSGSGSGTSYSLTISSMEAEDAATYYCQQWSSNPLTFGSGTKLELKR: 1.42
murine antibody 14A7 (A1) (antibody, V domains shown, Mouse hybridoma antibody (subclone 14A7-4), tested as culture supernatant or purified from it; Only the variable domains are printed; also called 14A7-4) VH: QVQLKQSGAELVRPGTSVKMSCKATEYTFTNNWIAWVKQRPGHGLEWVGDIHPGGGFTNYNEKFKVKATLTADTSSSTAYMQLRSLTSEDSAIYYCAGSKTRDYDAWFAYWGQGTLVTVSA VL: DIVMTQAPSSLAVSVGEKVTLNCKSSQSLLYTGNQKNYLAWYQQKPGQSPKLLIYWASTRESGVPDRFTGSGSGTDFTLTISNVKAEDLAVYFCQQYYTYRTFGGGTKLEIK: 0.8
chimeric antibody 14A7(chi) (antibody, V domains shown, also called 14A7-4(chi)) VH: QVQLKQSGAELVRPGTSVKMSCKATEYTFTNNWIAWVKQRPGHGLEWVGDIHPGGGFTNYNEKFKVKATLTADTSSSTAYMQLRSLTSEDSAIYYCAGSKTRDYDAWFAYWGQGTLVTVSA VL: DIVMTQAPSSLAVSVGEKVTLNCKSSQSLLYTGNQKNYLAWYQQKPGQSPKLLIYWASTRESGVPDRFTGSGSGTDFTLTISNVKAEDLAVYFCQQYYTYRTFGGGTKLEIKR: 1.32

Shift focus to the following entry.
[Q] Look up EC50: murine antibody 13C9 (A3) (antibody, V domains shown, Mouse hybridoma antibody (subclone 13C9-1), tested as culture supernatant or purified; Only variable domains printed (the VL as printed ends in RA); also called 13C9-1) VH: QVQLKQSGAGLVKPGASVKLSCKASGYIFTEYIIHWVKQRSGQGLEWIGWFYPGSDNIKYNEKFKDKATLTADKSSSTVYMELSRLTSEDSAVYFCARHETGYFFDYWGQGTTLTVSS VL: DIVITQSPAIMSASPGEKVTMTCSASSSVSKMNWYQQKSGTSPKRWIYDTSKLASGVPSRFSGSGSGTSYSLTISSMEAEDAATYYCQQWSSNPLTFGSGTKLELKR
[A] 0.49
